# credit: the supplement of paper PMC8728848

# target_of_assay: Man(a1-3)[Man(a1-6)]Man(a1-6)[Man(a1-3)]Man(b1-4)GlcNAc(b1-4)GlcNAc
# assay: glycan array binding signal (z-score within array); higher = stronger binding
# settings: glycan notation: IUPAC condensed, linker removed
This excerpt belongs to a sample that is enriched for the strongest signals.
value_type: glycan array binding signal (z-score)
Just the number.

I am curious: what glycan array binding signal (z-score) value has been reported for Gal 8 (Homo sapiens), O00214_1 (protein) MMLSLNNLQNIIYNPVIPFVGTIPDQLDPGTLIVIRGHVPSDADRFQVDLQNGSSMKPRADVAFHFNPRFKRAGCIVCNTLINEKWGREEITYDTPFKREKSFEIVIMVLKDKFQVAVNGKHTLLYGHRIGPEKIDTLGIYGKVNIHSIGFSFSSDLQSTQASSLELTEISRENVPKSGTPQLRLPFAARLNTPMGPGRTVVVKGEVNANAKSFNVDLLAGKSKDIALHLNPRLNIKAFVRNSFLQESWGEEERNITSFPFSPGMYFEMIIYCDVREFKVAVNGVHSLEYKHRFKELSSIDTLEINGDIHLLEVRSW ?
-0.16
